Tested on: ARTHIS (Arthraxon hispidus (Thunb.) Makino, creek grass)
PROTOCOL: Weed control test, foliage treatment (Test Example 1, Table 7)
Type: in vivo
APPLIED_CONDITIONS: Arthraxon hispidus, foliar, 0.1 kg/ha, read-out: Plant damage (herbicidal activity), visually evaluated, ARTHIS
Listed compounds paired with reported pest or weed control at 100 g/ha
The response must be a number in % with no trailing unit.

Problem: Look at this compound and give its reported pest or weed control at 100 g/ha. COc1ccc2nc(N(C)C(=O)[C@@H](C)Oc3ccc(Oc4nc5ccc(Cl)cc5o4)cc3)sc2c1 [Example 14]
Solution: 20

Problem: Look at this compound and give its reported pest or weed control at 100 g/ha. COc1ccc2nc(NC(=O)[C@@H](C)Oc3ccc(Oc4nc5ccc(Cl)cc5o4)cc3)sc2c1 [Example 13]
Solution: 100

Further cases:
Problem: Look at this compound and give its reported pest or weed control at 100 g/ha. C[C@@H](Oc1ccc(Oc2ccc(C#N)cc2F)cc1)C(=O)Nc1nc2ccc(F)cc2s1 [Example 23]
Solution: 0

Problem: Look at this compound and give its reported pest or weed control at 100 g/ha. Cc1ccc2nc(N(C)C(=O)[C@@H](C)Oc3ccc(Oc4ccc(C#N)cc4F)cc3)sc2c1 [Example 26]
Solution: 0

Problem: Look at this compound and give its reported pest or weed control at 100 g/ha. C[C@@H](Oc1ccc(OC(F)=Cc2ccc(Cl)cc2)cc1)C(=O)Nc1nc2cc(Cl)ccc2o1 [Example 56]
Solution: 0

Problem: Look at this compound and give its reported pest or weed control at 100 g/ha. C[C@@H](Oc1ccc(OC(F)=Cc2ccccc2)cc1)C(=O)N(C)c1ccccc1F [Example 37]
Solution: 0

Problem: Look at this compound and give its reported pest or weed control at 100 g/ha. Cc1ccc(C=C(F)Oc2ccc(O[C@H](C)C(=O)Nc3ccccc3F)cc2)cc1 [Example 41]
Solution: 0

Problem: Look at this compound and give its reported pest or weed control at 100 g/ha. C[C@@H](Oc1ccc(C(F)=C(c2ccccc2)C(F)(F)F)cc1)C(=O)Nc1ccccc1F [Example 42]
Solution: 0
